- Tested on: 233499-124-R-J3-PDC complex spheroid viability;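 also: spheroids exposed to the drug combinations for seven days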
- procedureSummary: Anticancer human tumor 233499-124-R-J3-PDC patient-derived colon adenocarcinoma cell line growth inhibition [CLK]
- conditionNotes: second compound 1 µM; first compound 10 µM; stronger effect = lower value
Note to self: use MET only for viability, T/C readings below 1%; a reading exactly at 1% still gets NOT MET.

Please review the entries below; each comes with its answer.
O=C(c1cc(Cc2n[nH]c(=O)c3ccccc23)ccc1F)N1CCN(C(=O)C2CC2)CC1 + CN1CCN(c2cc(C(=O)Nc3cc4cc(-c5cnn(C)c5)ccc4cn3)ccn2)CC1
NOT MET
COc1cccc2c1C(=O)c1c(O)c3c(c(O)c1C2=O)CC(O)(C(=O)CO)CC3OC1CC(N)C(O)C(C)O1 (stereo not given) + CNC(=O)c1ccc(Nc2nc(OC3CCCC3)c3c(-c4ccc5nc(C)oc5c4)c[nH]c3n2)c(OC)c1
MET

Exercise: Identify whether the compound COc1cccc2c1C(=O)c1c(O)c3c(c(O)c1C2=O)CC(O)(C(=O)CO)CC3OC1CC(N)C(O)C(C)O1 (stereo not given) + CN1CCN(c2cc(C(=O)Nc3cc4cc(-c5cnn(C)c5)ccc4cn3)ccn2)CC1 records viability, T/C below 1%.
Key: MET

Exercise: Identify whether the compound CCCS(=O)(=O)Nc1ccc(F)c(C(=O)c2c[nH]c3ncc(-c4ccc(Cl)cc4)cc23)c1F + CN1CCN(c2cc(C(=O)Nc3cc4cc(-c5cnn(C)c5)ccc4cn3)ccn2)CC1 records viability, T/C below 1%.
Key: NOT MET

Exercise: Identify whether the compound CC1(C)CCC(CN2CCN(c3ccc(C(=O)NS(=O)(=O)c4ccc(NCC5CCOCC5)c([N+](=O)[O-])c4)c(Oc4cnc5[nH]ccc5c4)c3)CC2)=C(c2ccc(Cl)cc2)C1 + CNC(=O)c1ccc(Nc2nc(OC3CCCC3)c3c(-c4ccc5nc(C)oc5c4)c[nH]c3n2)c(OC)c1 records viability, T/C below 1%.
Key: NOT MET
